Biological target: dopamine transporter (Macaca fascicularis, UniProt Q9GJT6)
Construct: Each caudate-putamen was homogenized and used separately for dopamine and serotonin transporter assays; from tissue; host or cells: caudate-putamen membranes of adult cynomolgus or rhesus monkey brain
Sequence (Q9GJT6 whole entry): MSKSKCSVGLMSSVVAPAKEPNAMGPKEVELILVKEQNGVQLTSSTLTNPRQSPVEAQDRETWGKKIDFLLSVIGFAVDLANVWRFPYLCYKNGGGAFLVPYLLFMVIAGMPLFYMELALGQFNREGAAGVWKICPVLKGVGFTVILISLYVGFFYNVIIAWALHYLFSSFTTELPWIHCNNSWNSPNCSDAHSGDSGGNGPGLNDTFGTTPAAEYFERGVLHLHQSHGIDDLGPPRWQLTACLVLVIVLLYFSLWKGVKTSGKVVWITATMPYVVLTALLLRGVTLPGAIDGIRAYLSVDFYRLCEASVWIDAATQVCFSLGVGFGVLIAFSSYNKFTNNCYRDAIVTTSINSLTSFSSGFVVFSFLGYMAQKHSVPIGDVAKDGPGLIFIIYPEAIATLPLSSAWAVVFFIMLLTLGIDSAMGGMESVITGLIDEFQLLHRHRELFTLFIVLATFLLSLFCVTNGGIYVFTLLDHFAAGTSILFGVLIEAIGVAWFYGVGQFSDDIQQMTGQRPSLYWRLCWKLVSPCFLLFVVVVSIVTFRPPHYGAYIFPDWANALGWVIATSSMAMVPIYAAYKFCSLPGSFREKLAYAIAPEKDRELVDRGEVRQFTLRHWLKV
Test: Inhibition of [3H]WIN 35,428 binding to the dopamine transporter in monkey caudate-putamen
Settings: Table 2; affinity at the dopamine transporter; read-out: DAT IC50
quantity: pIC50
Interpret pIC50 as the negative base-10 log of the concentration measured in mol/L.

# molecule, endpoint value
measured = [
    ("COC(=O)C(c1ccc2ccccc2c1)C1CCCCO1 (centres unmarked) [Naphthyl mixture]", 6.52),
    ("CO[C@@H]1C[C@H](c2ccc3ccccc3c2)c2ccccc21 (relative stereo) [Compound 0-1833, Cis-3-(2-Naphthyl)-0-methylindanol]", 6.72),
    ("CO[C@@H]1C[C@@H](c2ccc(Cl)c(Cl)c2)c2ccccc21 (relative stereo)", 7.22),
    ("CO[C@@H]1C[C@@H](c2ccc3ccccc3c2)c2ccccc21 (relative stereo) [Compound 0-1925, Trans-1-Methoxy-3-(2-naphthyl)indans]", 6.67),
    ("N#CC(c1ccc(Cl)c(Cl)c1)C1CCCCC1 (stereo not drawn) [Compound 8, α-cyclohexyl-3,4-dichlorobenzylcyanide]", 6.90),
]

Qu. Respond only with pIC50 recorded for CO[C@@H]1C[C@H](c2ccc(Cl)c(Cl)c2)c2ccccc21 (relative stereo)
Ans. 6.89

Qu. Look up and report measured pIC50 for this entry: COC(=O)C(c1ccc(Cl)c(Cl)c1)C1CCCCO1 (centres unmarked)
Ans. 6.54

Qu. Give pIC50 for the following molecule: N#CC(c1ccc(Cl)c(Cl)c1)C1CCCC1 (stereo not drawn) [Compound 10, α-cyclopentyl-3,4-dichlorobenzylcyanide]
Ans. 6.89
